- testedOn: Tyrosine-protein kinase SYK (Homo sapiens, UniProt P43405)
pIC50: −log10 of the molar value.
1 means recorded pIC50 is 7 or above; 0 means it is below 7.

# count of solved cases: 3
CCNc1c[nH]nc1-c1nc2ccccc2[nH]1 : 0
Cc1nc(Cl)cc(Nc2c[nH]nc2-c2nc3ccccc3[nH]2)n1 : 0
Fc1ccc2[nH]c(-c3n[nH]cc3Nc3ncnc4[nH]ccc34)nc2c1 : 1

Is the recorded value of pIC50 equal to or greater than 7 for this compound? CCN(CC)c1ccc2[nH]c(-c3n[nH]cc3Nc3ncnc4[nH]ccc34)nc2c1
1

Is the recorded value of pIC50 equal to or greater than 7 for this compound? Clc1ccc2[nH]c(-c3n[nH]cc3Nc3ncnc4[nH]ccc34)nc2c1
0

Is the recorded value of pIC50 equal to or greater than 7 for this compound? c1nc(Nc2c[nH]nc2-c2nc3cc(N4CCCCC4)ccc3[nH]2)c2cc[nH]c2n1
1
